- target-desc: human SGLT1 (Homo sapiens (Human), UniProt P13866)
- Sequence (P13866 whole entry): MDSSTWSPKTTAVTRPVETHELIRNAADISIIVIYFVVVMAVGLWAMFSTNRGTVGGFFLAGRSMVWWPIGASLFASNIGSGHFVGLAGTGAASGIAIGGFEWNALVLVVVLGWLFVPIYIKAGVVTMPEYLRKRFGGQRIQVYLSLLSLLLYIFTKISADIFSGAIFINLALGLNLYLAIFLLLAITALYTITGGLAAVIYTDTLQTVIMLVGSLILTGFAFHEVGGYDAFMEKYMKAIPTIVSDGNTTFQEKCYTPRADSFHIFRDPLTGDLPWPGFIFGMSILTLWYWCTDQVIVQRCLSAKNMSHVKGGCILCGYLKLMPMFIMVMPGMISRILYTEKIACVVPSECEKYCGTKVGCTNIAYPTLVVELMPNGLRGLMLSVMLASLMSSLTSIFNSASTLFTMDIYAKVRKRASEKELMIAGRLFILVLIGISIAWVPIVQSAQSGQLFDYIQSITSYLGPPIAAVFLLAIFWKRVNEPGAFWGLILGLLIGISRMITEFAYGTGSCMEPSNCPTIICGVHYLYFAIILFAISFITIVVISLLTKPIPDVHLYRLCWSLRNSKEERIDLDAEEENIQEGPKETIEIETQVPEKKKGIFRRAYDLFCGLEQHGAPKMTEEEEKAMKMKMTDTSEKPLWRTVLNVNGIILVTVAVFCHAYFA
- assay-info: SGLT1 assay: analogous 14C-AMG uptake test with hSGLT1 expressed in CHO-K1 or HEK293 cells
- Assay type: cell-based
- study-conditions: n = 1-4
recorded-endpoint: IC50 (nM)

a = CCc1ccc([C@@H]2O[C@H](CO)[C@@H](O)[C@H](O)[C@H]2O)cc1Cc1ccc2c(c1)OCCO2
b = OC[C@H]1O[C@@H](c2ccc(C3CC3)c(Cc3ccc4c(c3)OCCO4)c2)[C@H](O)[C@@H](O)[C@@H]1O
Q: Returns the identifier with the smallest measured IC50 among a and b . Answer format: the label of the selected item.
Result: b

====

- target-desc: human SGLT1 (Homo sapiens (Human))
- assay-info: SGLT1 assay: analogous 14C-AMG uptake test with hSGLT1 expressed in CHO-K1 or HEK293 cells
- Format: cell-based
- study-conditions: title compounds of the Examples (prodrugs); n = 1-4
recorded-endpoint: IC50 (nM)

CCc1ccc([C@@H]2O[C@H](COC(=O)OCC3CC4CCC3C4)[C@@H](O)[C@H](O)[C@H]2O)cc1Cc1ccc2c(c1)OCCO2 (stereo partly drawn) [Example 2f]
3440
CCc1ccc([C@@H]2O[C@H](COC(=O)[C@H](N)C(C)C)[C@@H](O)[C@H](O)[C@H]2O)cc1Cc1ccc2c(c1)OCCO2 [Example 1]
409
CC(C)COC(=O)OC[C@H]1O[C@@H](c2ccc(C3CC3)c(Cc3ccc4c(c3)OCCO4)c2)[C@H](O)[C@@H](O)[C@@H]1O [Example 2b]
338
CCOP(=O)(OCC)OC[C@H]1O[C@@H](c2ccc(C3CC3)c(Cc3ccc4c(c3)OCCO4)c2)[C@H](O)[C@@H](O)[C@@H]1O [Example 3a]
5650
CCOP(=O)(OCC)OC[C@H]1O[C@@H](c2ccc(CC)c(Cc3ccc4c(c3)OCCO4)c2)[C@H](O)[C@@H](O)[C@@H]1O [Example 3]
814

A = CCOC(=O)OC[C@H]1O[C@@H](c2ccc(CC)c(Cc3ccc4c(c3)OCCO4)c2)[C@H](O)[C@@H](O)[C@@H]1O [Example 2c]
B = CCOC(=O)OC[C@H]1O[C@@H](c2ccc(C3CC3)c(Cc3ccc4c(c3)OCCO4)c2)[C@H](O)[C@@H](O)[C@@H]1O [Example 2a]
C = CCc1ccc([C@@H]2O[C@H](COC(=O)O[C@@H](C)c3ccccc3)[C@@H](O)[C@H](O)[C@H]2O)cc1Cc1ccc2c(c1)OCCO2 [Example 2g]
D = COC(=O)OC[C@H]1O[C@@H](c2ccc(C3CC3)c(Cc3ccc4c(c3)OCCO4)c2)[C@H](O)[C@@H](O)[C@@H]1O [Example 2]
Q: Sequence the entries by IC50, beginning with the highest number. Answer with the labels in sequence, matching the requested order.
Result: C, B, A, D
(C: 1000 nM, B: 308 nM, A: 197 nM, D: 35 nM)

====

- target-desc: human sodium glucose co-transporter 2 (SGLT2) (Homo sapiens (Human), UniProt P31639)
- Sequence (P31639 whole entry): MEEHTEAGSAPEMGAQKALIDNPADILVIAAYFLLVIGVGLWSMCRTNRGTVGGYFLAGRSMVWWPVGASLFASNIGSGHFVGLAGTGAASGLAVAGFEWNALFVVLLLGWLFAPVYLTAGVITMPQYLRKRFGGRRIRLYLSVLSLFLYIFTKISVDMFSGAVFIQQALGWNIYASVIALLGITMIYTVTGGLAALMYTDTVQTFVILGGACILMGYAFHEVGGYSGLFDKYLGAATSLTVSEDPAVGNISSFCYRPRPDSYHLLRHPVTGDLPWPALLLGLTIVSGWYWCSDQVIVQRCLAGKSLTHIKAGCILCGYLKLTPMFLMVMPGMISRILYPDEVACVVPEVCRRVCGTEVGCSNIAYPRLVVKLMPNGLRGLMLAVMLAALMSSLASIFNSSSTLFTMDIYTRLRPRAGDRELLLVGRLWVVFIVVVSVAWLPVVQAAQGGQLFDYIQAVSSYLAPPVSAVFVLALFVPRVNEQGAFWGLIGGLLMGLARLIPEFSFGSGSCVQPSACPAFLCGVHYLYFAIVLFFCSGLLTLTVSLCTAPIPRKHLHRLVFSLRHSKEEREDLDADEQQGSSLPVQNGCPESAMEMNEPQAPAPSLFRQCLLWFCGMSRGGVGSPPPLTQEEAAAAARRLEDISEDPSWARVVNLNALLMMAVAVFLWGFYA
- assay-info: SGLT-2 assay: 14C-AMG uptake in CHO-hSGLT2 or HEK-hSGLT2 cells
- Format: cell-based
- study-conditions: title compounds of the Examples (prodrugs); n = 1-4
recorded-endpoint: IC50 (nM)

Solved entries (count: 4):
CCOC(=O)OC[C@H]1O[C@@H](c2ccc(C3CC3)c(Cc3ccc4c(c3)OCCO4)c2)[C@H](O)[C@@H](O)[C@@H]1O
97
CCc1ccc([C@@H]2O[C@H](COC(=O)[C@H](N)C(C)C)[C@@H](O)[C@H](O)[C@H]2O)cc1Cc1ccc2c(c1)OCCO2
22.5
CCOC(=O)OC[C@H]1O[C@@H](c2ccc(CC)c(Cc3ccc4c(c3)OCCO4)c2)[C@H](O)[C@@H](O)[C@@H]1O
27
CC(C)COC(=O)OC[C@H]1O[C@@H](c2ccc(C3CC3)c(Cc3ccc4c(c3)OCCO4)c2)[C@H](O)[C@@H](O)[C@@H]1O
186

A = CCc1ccc([C@@H]2O[C@H](COC(=O)OCC3CC4CCC3C4)[C@@H](O)[C@H](O)[C@H]2O)cc1Cc1ccc2c(c1)OCCO2 (stereo partly drawn)
B = COC(=O)OC[C@H]1O[C@@H](c2ccc(C3CC3)c(Cc3ccc4c(c3)OCCO4)c2)[C@H](O)[C@@H](O)[C@@H]1O
C = CCc1ccc([C@@H]2O[C@H](COC(=O)O[C@@H](C)c3ccccc3)[C@@H](O)[C@H](O)[C@H]2O)cc1Cc1ccc2c(c1)OCCO2
Q: Could you please sort these 3 entries by IC50 from high to low? Give the labels in the order requested.
Result: C, A, B

Where do these numbers come from? They come from patent US8614195B2.
